B1: FAM189A2 (parent)
chain: NLAGFILGCQGAQFVSSVPRCDLV

Variants of: B1
Assay: protein stability index of a GFP-peptide fusion (GPS, HEK-293T) (PSI 1-6); higher = more stable;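 further: lentivirally expressed fusions sorted by FACS into six bins by GFP to DsRed ratio, PSI derived from sequencing read proportions per bin multiplied by bin number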
Settings: c terminus: a fixed tail appended
Where protein stability index equals or exceeds 2, the correct label is true (1); where it does not, the label is false (0).

Challenge: Can `A3R` be said to have protein stability index at or above 2?
Response given: false (0)

Challenge: Reported protein stability index reaches at least 2 for `Q13P` ?
Response given: true (1)

Challenge: Confirm if protein stability index reported for the variant `N1K` is 2 or above.
Response given: true (1)

Challenge: Is protein stability index at least 2? Consider `S16E`
Response given: true (1)

Challenge: # bool: protein stability index of `L2T` >= 2
Response given: false (0)

Challenge: Reported protein stability index at or above 2? `A12C`
Response given: true (1)

Challenge: Does `V18F` have a reported protein stability index of at least 2?
Response given: true (1)

Challenge: Given the entry `D22N` , answer whether its protein stability index meets or surpasses 2.
Response given: true (1)

Challenge: Has `V15D` a recorded protein stability index greater than or equal to 2?
Response given: false (0)

Challenge: Could you please find out whether `L23I` has protein stability index that meets 2 or exceeds it?
Response given: true (1)

Challenge: Please check the record `I6H` and state if its protein stability index is at or above 2.
Response given: false (0)

Challenge: # bool: protein stability index of `V15Y` >= 2
Response given: true (1)

Challenge: Exam item: decide whether the reported protein stability index for `L23S` is at least 2.
Response given: false (0)

Challenge: Given `I6T` , state whether its protein stability index is at least 2.
Response given: false (0)

Challenge: Does `C9P` have a reported protein stability index of at least 2?
Response given: false (0)
